Value source: the nanobody polyreactivity screen of Harvey et al. (2022)

# PROCEDURE_DETAILS: yeast display, Sf9 membrane polyspecificity reagent, FACS + sequencing; frameworks hold sequencing errors
MEASUREMENT_KIND: polyreactivity (PSR sort gate)

Some entries whose results are on file:
SEQUENCE_ENTRY	polyreactivity (PSR sort gate)
QVQLVESGGGLVQAGGSLRLSCAASGSIFYGYDMGWYRQAPGKERELVATISWSSGSSTYYADSVKGRFTISRDNAKNTVYLQMNSLKPEDTAVYYCAVDFAIGYRYLGRVDYWGQGTQVTVSS	low polyreactivity
QVQLEESGGGLVQAGGSLRLSCAASGITIYYYAMGWYRQAPGKERELVAAISRSAGSTSYADSVKGRFTISRDNAKNTVYLQMNSLKTEDNAVYYCAAQGWHLDSQWQLYNYYYWGQGTQVTVSS	high polyreactivity
QVQLVESGGGLVQAGGSLRLSCAAYGSTFVWNTMGWYLQAPGKERELVAAINWSGTRTYYADSVKGRFTISRDNAKNTVYLQMNSLKPEDTAVYYCAAESYYPAGIRGYWGQGTQVTVSS	high polyreactivity
QVQLVESGGGLVQAGGSLRLTCAASGNTFYPYAMGWYRQGPGKERELVAAITSSGGSTYYADSVKGRFTISRDNANNTVYLQMNSLKPEDTAVYYCAADPDWYSPFKYVYWGQGTQVTVSS	low polyreactivity

Turning now to a further sequence:
Q: Please look at this sequence and report its polyreactivity (PSR sort gate): `QVQLVESGGGLVQAGGSLRLSCAASGITFYWYAMGWYRQAPGKERELVARISSTGGSTYYADSVKGRFTISRDNAKNTVYLQMNSLKPEDTAVYYCNAVGRLYLYGSWGQGTQVTLSS`
Ans: high polyreactivity

* * *

# PROCEDURE_DETAILS: yeast display, Sf9 membrane polyspecificity reagent, FACS + sequencing; frameworks hold sequencing errors
MEASUREMENT_KIND: polyreactivity (PSR sort gate)

Answered examples (5):
SEQUENCE_ENTRY	MEASUREMENT_KIND	RESULT
QVQLVESGGGLVQAGGSLRLSCAASGSTFRRNAMGWYRQAPGKERELVAAISRSGDSTYYADSVKGRFTISRDYAKNTVYLQMNSLKPEDNAVYYCIAHQSRQVGYWGQGTQVTVSS	polyreactivity (PSR sort gate)	high polyreactivity
QVQLVESGGGLVQAGGSLRLSCAASGFTFDGYGMGWYRQAPGKERELVAVITSGGSTKYADSVKGRFTISRDNAKNTVYLQMNSLNPEDTAVYYCNVVGGRYLYSAYDYWGQGTQVTVSS	polyreactivity (PSR sort gate)	low polyreactivity
QVQLVESGGGLVQAGGSLRLSCAASGRIFKVNAMGWYRQAPGKERELVAAITRGGRTYADSVKGRFTISRDNAKNTVYLQMNSLKPEDTAVYYCAADVLEGWFKRYYYWGQGTQVTVSS	polyreactivity (PSR sort gate)	high polyreactivity
QVQLVETGGGLVQAGGSLRLSCAASGFTIRRYTMGWYRQAPGKERELVAAITRGVRTYYADSVKGRFTISRDNAKNTVYLQMNSLKPEDTAVYYCNTAQQSERDYWGQGTQVTVSS	polyreactivity (PSR sort gate)	high polyreactivity
QVQLVESGGGLVQAGGSLRLSCAASGFIFGWYTMGWYRQAPGKERELVASISRSGGSTYYAESVKARFTISRDNEKNSVYLQMNSQKPEDNPVYYCAKRSLVDAHGYWGQGTQVTVSS	polyreactivity (PSR sort gate)	high polyreactivity

Q: Quick one: give measured polyreactivity (PSR sort gate) for `QVQLVESGGGLVQAGGSLRLSCAASGSTFVRYVMGWYRQATGKERELVAAISRRGGSTYYADSVKGRFTISRDNAKNTVYLQMNSLKPEDTAVYYCARTVGYRTLLESDSWGQGTQVTVSS`
Ans: high polyreactivity

Q: Complete the entry with polyreactivity (PSR sort gate) for `QVQLVESGGGLDQAGASLRLSCAASGRIYVVNAMGWYREAPGKEMELVATNTRSGGITFYPDSVKGRFTISRDNAKNTVYLQMNSLNPEVTAVYYCNADVLFYTYYTRGRFDFDYWGQGTQVTVSS`
Ans: low polyreactivity

Q: Assign polyreactivity (PSR sort gate) to the following record: `QDQLVESGGGLVRAGGSLRLSCAASGSIFVVNAMGLYRQAPGKERELVADINSGGSTNFADSVKGRFTISRDNAKNTVYLQMNSLKPEDTAVYYCAKSAVTGTYDYWGQGTLVTVSS`
Ans: low polyreactivity

Q: Supply measured polyreactivity (PSR sort gate) of `QVQLVESGGGLVQAGGSLRLSCAASGRIFTFYAMGWYRQAPGKARELVASITGGGNTYYADSVKGRFTISRDNAKNTVYLQMNSLKPEDTAVYYCAAGFSYFTSVLSLDRYYYWGQGTQVTVSS` in your reply.
Ans: low polyreactivity

Q: Report polyreactivity (PSR sort gate) for `QVQLVESGGGLVQAGGSIRLSCAASGRIFAYNPMGWSRQAPGKERELVAVITSGRSTNYADSVKGRFTISRDNEKNNVYLQMNSLKPVDTAFYYCAKRPYGRSGGSRYDYWGQGTQGTVSS`
Ans: high polyreactivity

Q: Give reported polyreactivity (PSR sort gate) value for `QVQLVESGGGLVQAGGSLRLSCAASGRIFTGNAMGWYRQAPGKERELVASITYSDGSTYYADSVKGRFTISRDNAKNTVYFQMNSLKPEDTAVYYCAADILWGQGTQVTVSS`
Ans: low polyreactivity

* * *

# PROCEDURE_DETAILS: yeast display, Sf9 membrane polyspecificity reagent, FACS + sequencing; frameworks hold sequencing errors
MEASUREMENT_KIND: polyreactivity (PSR sort gate)

Study these solved cases before continuing.
SEQUENCE_ENTRY	polyreactivity (PSR sort gate)
QVQLVESGGGLVQAGGSLRLSCAASGRTFGQNAMGWYRQAPGKERELVASIRSGGITDYADSVKGRFTISRDNAKNTVYLQMNSLKPDDTAVYYCNAEGVWWSTRYDSWGQGTQVTVSS	low polyreactivity
QLQLVESGGGLVQAGGSLRLSCAASGSIFPDYAMGWYRPAPAKERELVAAITWRDDSTYYADSVKGRFTISRDNAKNTVYLQMNSLKPEDTAVYYCNASALDPLYAKDDYWGQGTQVTVSS	low polyreactivity
QVQRVESGGGLVQAGGSLRLSCAASGSTFTWNVMGWYRQAPGKERELVASITSGDSTYADSVKGRFTISRDNAKNTVYLQMNSLKPEDTAVYYCNVGYDQEKYGYWGQGTQVTVSS	low polyreactivity
QVQLVESGGGLVQAGGSLRLSCAASGLIFSRYTMGWYRQAPGKERELVAAISGRGTSTYYADSVKGRFTISRDNAKNTVYLQMNSLKPEDTAVYYCATSKSYSAFDYWGQGTQVTVSS	high polyreactivity
QVQLVESGGGLVQAGGSLRLSCAASGSTFTDYDMGWYRQAPGKERELVAAITSGGSTNYADSVKGRFTISRDNAKNTVYLQMNSLKPEDTAVYYCKVRPYGFDSEFDYWGQGTQVTVSS	low polyreactivity
QVQLVESGGGLVQAGGSLRLSCAASGSTFTGYALGWYRQAPGKEREFVATITKRGGRTYYADSVKGRFTISRDNAKNTVYLQMHSLKPEDTAVYYCARDQGKLVVPYDYWGQGTQVTVSS	high polyreactivity
QFQLVDSGGGLVQAGGSLRLSCAPSGRIFQIYAMGWYRQAPGKERELVAAISGSTSYADSVKGRFTISRDNAKNTVYLQMISLKPEDTAVYYCAARALLPYGEYWGQGSQVTVSS	low polyreactivity
QVQLVESGGGLVQAGGSLRLSCSASGSTFTAYAMGWSRQAPGKERELVATISDSGGSTYYADSVKGRFTISRDNAKNTVYLQMNSLKPEDTAVYYCAADVYSYFYQVVYTFDYWGQCTQVTVSS	low polyreactivity
QVQLVESGGGLVQAGGSLRLSCAASGFTFSGYDMGWYRQAPGKERELVAGISSGGVSTTYADSVKGRFTISRDNAKNTVYLQMNSLKPEDTAVYYCSTSGPQYYSRNFDYWGQGTQVTVSS	low polyreactivity
QVHLVESGGGLVQAGGSLRLSCAASGITFNSNAMGWYRQAPGKERELVAAITVSGGNTYYADSVKGRFTISRDNAKNTVYLQMYSLKPEDTAVYYCNTASDVSWYVHYYYWRQGTQVTVSS	low polyreactivity

Q: For the sequence `QVQLVESGGGLVQAGGSLRLSCAASGSTFFLNAMGWYRQAPGKERELVAAISYSDSGTNYADSVKGRFTISRDNAKNTVYLQMNSLKPEDTAVYYCATAVRPWYVTSGNYWGQGTQVTVSS` , give its measured polyreactivity (PSR sort gate) value.
Ans: low polyreactivity

Q: Please report the measured polyreactivity (PSR sort gate) for `QVQLVESGGGLVQAGGSLRLSCAASGSTFSDNAMGWYRQAPGKERELVAAITSGGSTYYADSVKGRFTISRDNAKNTVYLQMNSLKPEDTAVYYCATGGVTFGSVVRGVDGDYWGQGTQVTVSS`
Ans: low polyreactivity

Q: Tell me measured polyreactivity (PSR sort gate) for `QVQLVESGGGLVQAGGSLRLSCAASGRIFSRNTMGWYRQAPGKERELVAAISWRGGSTYYADSVKGRFTISRDNAKNTVYLQMNSLKPEDTAVFYCAAVVRSPAYDYWGQGTQVSVSS` please.
Ans: high polyreactivity

Q: Using known records, supply polyreactivity (PSR sort gate) for `QVQLVESGGGLVQAGGSLRLSCAASGRIFDYNVMGWYRQAPGKERELVADINGSGGGTNYADSVKGRFTISRDNAKNTVYLQINTLKPEDTAVYYCNADSYEYHVPYYDYRYDYCGQGTQVTVSS`
Ans: low polyreactivity

Q: Return reported polyreactivity (PSR sort gate). Input sequence: `QVQLVESGGGLVQAGGSLRLSCAASGSTIHDYAMGWYRQAPGKEREFVAAISNSGGSTYYADSLKGRFTISRDNAKNTVYLQMNSLKPEDTAVYYCAADGRWYWDYEYWGQGTQVTVSS`
Ans: low polyreactivity

Q: Identify polyreactivity (PSR sort gate) associated with the sequence `QVQLVESGVGLVQAGGSLRLSCAASGRIFHYNAMGWYRQAPGKERELVAAISTGGSTNYADSVKGRFTISRDNAKNTVYLQMNSLKPEDTAVYYCAADRTLSYEYWGQGTQVTVSS`
Ans: low polyreactivity
